system: NCI-H23 lung; test: NCI-60 one-dose screen, 48 h; conditions: 10 µM unless noted
Compounds without any hit were thinned out: in the full panel of roughly 83,000, 20% have a hit. Active and inactive are the calls of the source. The calls were made as follows: active = growth percent below 10; inactive = the rest.
Classes used: active, inactive

>  <molecule>
CN(C)c1nc(NCCNS(=O)(=O)c2ccc(C(=O)/C=C/c3ccccc3)cc2)nc(N2CCOCC2)n1

>  <experimentalTarget>
NCI-H23 lung

>  <classLabel>
inactive

$$$$
>  <molecule>
O=C(c1ccc(Cl)cc1)C1[C@H](c2ccccc2Cl)[C@@H](c2ccccc2)NC12C(=O)Nc1ccccc12 (some centres undefined)

>  <experimentalTarget>
NCI-H23 lung

>  <classLabel>
active

$$$$
>  <molecule>
O=C(Nc1nc2ccc([N+](=O)[O-])cc2s1)Nc1ccccc1F

>  <experimentalTarget>
NCI-H23 lung

>  <classLabel>
active

$$$$
>  <molecule>
Clc1ccc(Nc2nnc(-c3c[nH]c4ccccc34)o2)cc1

>  <experimentalTarget>
NCI-H23 lung

>  <classLabel>
inactive

$$$$
>  <molecule>
CC(C)(C)OC(=O)N1CCC2(CC1)Oc1ccccc1[C@H]1CC(c3ccc(Br)cc3)=NN12

>  <experimentalTarget>
NCI-H23 lung

>  <classLabel>
inactive

$$$$
>  <molecule>
O=C(N/N=C/c1ccc(Cl)cc1)c1ccc(OCc2nc3ccc(Cl)cc3[nH]2)cc1

>  <experimentalTarget>
NCI-H23 lung

>  <classLabel>
active

$$$$
>  <molecule>
CC(Nc1ncnc2ccc(-c3ccc4oc(N)nc4c3)cc12)c1ccccc1 (centres undefined)

>  <experimentalTarget>
NCI-H23 lung

>  <classLabel>
inactive

$$$$
>  <molecule>
Nc1nc(-c2ccccc2)c(N=Nc2ccc(Cl)cc2Cl)s1

>  <experimentalTarget>
NCI-H23 lung

>  <classLabel>
active

$$$$
>  <molecule>
O=C(Nc1ccc(-c2ccc3c(c2)NC(=O)/C3=C\c2ccc[nH]2)cc1)Nc1ccc(Cl)c(Cl)c1

>  <experimentalTarget>
NCI-H23 lung

>  <classLabel>
inactive

$$$$

====

Test system: UACC-62 melanoma
Test: NCI-60 one-dose screen, 48 h
Settings: 10 µM unless noted
Method: Growth inhibition of the UACC-62 human tumor cell line is measured as a screen for anti-cancer activity. Cells are grown in 96 well plates and exposed to the test compound for 48 hours. Compounds are tested at a single concentration, which is 10^-5 M for most compounds. The reported endpoint is percent growth (GI% or GIPRCNT), where numbers from 0 - 100% represent growth inhibition, and numbers from -100% - 0 represent cell death. For example, a value of 40 represents 60% growth inhibition. […]
About 83,000 compounds went through this panel and 20% of them were active in at least one assay; those are over-represented in the sample as a whole. The source made the active and inactive calls. The calls were made as follows: active = growth percent below 10; inactive = the rest.
Classes used: active, inactive

>  <compound>
C[C@@H]1[C@H]2C[C@@H](C[C@H]1NCc1nc3ccccc3n1C1CCCCCC1)C2(C)C

>  <experimentalTarget>
UACC-62 melanoma

>  <classLabel>
inactive

$$$$
>  <compound>
NS(=O)(=O)c1cccc(Nc2nc(SCC(=O)c3ccc(F)cc3)nc3ccccc23)c1

>  <experimentalTarget>
UACC-62 melanoma

>  <classLabel>
active

$$$$
>  <compound>
CCCSc1nnc(-c2c(C)nc3sccn23)o1

>  <experimentalTarget>
UACC-62 melanoma

>  <classLabel>
inactive

$$$$
>  <compound>
O=C(N=Nc1c(O)[nH]c2ccc(Cl)cc12)c1ccc2nc(-c3ccc(Cl)cc3)[nH]c2c1

>  <experimentalTarget>
UACC-62 melanoma

>  <classLabel>
active

$$$$
>  <compound>
CC1=C(C)C(=O)C(N2CCSCC2)=CC1=O

>  <experimentalTarget>
UACC-62 melanoma

>  <classLabel>
inactive

$$$$
>  <compound>
COc1cccc(/C=C/c2nc3ccccc3c(=O)n2CC(=O)Nc2ccccc2)c1

>  <experimentalTarget>
UACC-62 melanoma

>  <classLabel>
inactive

$$$$
>  <compound>
COc1ccc(SC2c3cc(OC)ccc3Oc3nc(N)c(C#N)c(N)c32)cc1 (stereo not given)

>  <experimentalTarget>
UACC-62 melanoma

>  <classLabel>
inactive

$$$$
>  <compound>
Cc1ccc2c(c1)/C(=C/C(=O)c1cc3ccccc3oc1=O)C(=O)N2

>  <experimentalTarget>
UACC-62 melanoma

>  <classLabel>
inactive

$$$$
>  <compound>
COc1ccc(/C=C/c2nc3ccccc3n3c(-c4cccc([N+](=O)[O-])c4)nnc23)cc1

>  <experimentalTarget>
UACC-62 melanoma

>  <classLabel>
active

$$$$
>  <compound>
O=C(Nc1nc2ccccc2s1)Nc1ccccc1Cl

>  <experimentalTarget>
UACC-62 melanoma

>  <classLabel>
inactive

$$$$
